Hello, the source for this data is patent US20020146750A1, in case you need it.

- target system: T1, MUC1 60-mer peptide NH2-(…)3-COOH (biotinylated in the ELISAs and selections)
- T1 construct: also called biotinylated MUC1 60-mer
- T1 sequence (peptide, as listed by the source): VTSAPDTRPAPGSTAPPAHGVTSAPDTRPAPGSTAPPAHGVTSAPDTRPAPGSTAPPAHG
- protocol description: ELISA, soluble Fab, biotinylated MUC1 60-mer; relative signal
observation type: binding result

INSERT INTO results (binder, reported) VALUES
  ('6C5 (Fab, V domains shown, PH1 Fab variant) VH: QVQLVQSGGGLVQPGGSLRLSCAASGFTFRSNAMGWVRQAPGKGLEWVSGISGSGGSTYYADSVKGRFTISRDNSKNTLYLQMNSLRAEDTAVYYCVKHTGGGVWDPIVYWGQGTLVTVSS VL: EIVLTQSPLSLPVTPGEPASISCRSSQSLLHSNGYTYLDWYLQKPGQSPQLLIYSGSHRASGVPDRFSGSVSGTDFTLRISRVEAEDVGVYYCMQGLQSPFTFGPGTKVDIKR', 'binds'),
  ('10F8 (Fab, V domains shown, PH1 Fab variant) VH: QVQLVQSGGGLVQPGGSLRLSCAASGFTFRSNAMGWVRQAPGKGLEWVSGISGSGGSTYYADSVKGRFTISRDNSKNTLYLQMNSLRAEDTAVYYCAKHTGGGVWDPMHYWGQGTLVTVSS VL: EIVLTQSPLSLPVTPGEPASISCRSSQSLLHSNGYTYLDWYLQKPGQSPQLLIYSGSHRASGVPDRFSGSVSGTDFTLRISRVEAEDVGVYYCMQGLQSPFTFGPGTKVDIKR', 'binds'),
  ('11F7 (Fab, V domains shown, PH1 Fab variant) VH: QVQLVQSGGGLVQPGGSLRLSCAASGFTFRSNAMGWVRQAPGKGLEWVSGISGSGGSTYYADSVKGRFTISRDNSKNTLYLQMNSLRAEDTAVYYCAKHTGVGVWDPMNYWGQGTLVTVSS VL: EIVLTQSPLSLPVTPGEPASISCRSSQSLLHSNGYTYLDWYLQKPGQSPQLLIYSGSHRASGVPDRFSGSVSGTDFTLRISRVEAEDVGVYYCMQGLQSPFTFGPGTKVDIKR', 'binds');
